Biological target: Full length DGKζ (in-house protein M1-V929) (Homo sapiens, UniProt Q13574)
Construct: His (N); TEV cleavage site (N)
Sequence (Q13574 1-929 isoform Q13574-4): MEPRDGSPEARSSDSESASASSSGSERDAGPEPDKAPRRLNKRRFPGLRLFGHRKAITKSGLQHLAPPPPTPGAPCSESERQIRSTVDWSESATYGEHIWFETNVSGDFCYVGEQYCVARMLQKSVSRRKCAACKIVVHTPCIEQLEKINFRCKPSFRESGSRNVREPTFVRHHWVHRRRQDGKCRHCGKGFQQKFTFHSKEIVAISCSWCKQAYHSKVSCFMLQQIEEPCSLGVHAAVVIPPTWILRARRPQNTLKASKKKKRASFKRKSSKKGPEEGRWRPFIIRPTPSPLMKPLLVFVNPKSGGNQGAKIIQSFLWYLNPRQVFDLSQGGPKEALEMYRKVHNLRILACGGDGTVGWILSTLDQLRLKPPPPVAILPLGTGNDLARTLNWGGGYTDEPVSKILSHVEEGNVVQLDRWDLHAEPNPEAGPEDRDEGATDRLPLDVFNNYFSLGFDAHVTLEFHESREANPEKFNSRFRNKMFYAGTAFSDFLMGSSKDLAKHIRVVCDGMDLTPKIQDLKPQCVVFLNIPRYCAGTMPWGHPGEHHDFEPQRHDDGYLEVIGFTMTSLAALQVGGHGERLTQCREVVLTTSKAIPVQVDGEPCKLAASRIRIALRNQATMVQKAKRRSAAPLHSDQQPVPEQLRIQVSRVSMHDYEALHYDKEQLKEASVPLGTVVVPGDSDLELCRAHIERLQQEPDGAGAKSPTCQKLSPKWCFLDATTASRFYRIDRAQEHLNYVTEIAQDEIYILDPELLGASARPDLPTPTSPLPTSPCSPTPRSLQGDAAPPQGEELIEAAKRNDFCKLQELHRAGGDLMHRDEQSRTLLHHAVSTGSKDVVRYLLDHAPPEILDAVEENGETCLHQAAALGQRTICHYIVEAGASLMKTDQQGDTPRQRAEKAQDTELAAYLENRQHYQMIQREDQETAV
Test: Biochemical DGK IC50 assay (ADP-Glo, lipid micelle substrate), DGKζ
Conditions: 0.5 nM enzyme, 140 μM ATP, 80 μM DAG, 1 hour preincubation, 1 hour reaction, room temperature, read-out: IC50s for DGKζ
Mark each entry met if its IC50 sits below 100 nM, and not met for all others.

compound="CC[C@H]1CN(C(C)c2ccc3nc(C)sc3c2F)[C@H](C)CN1c1cc(=O)n(C)n2cc(CC#N)nc12 (single isomer, unassigned) [Compound A119a]" classlabel="not met"
compound="CC(c1ccc2c(c1)OC(C)(C)CO2)N1C[C@H](C)N(c2c(C#N)c(=O)n(C)n3cc(CC#N)nc23)C[C@H]1C (single isomer, unassigned) [Compound A27a]" classlabel=met
compound="CC(c1ccc2c(c1)OC(C)(C)CO2)N1C[C@H](C)N(c2c(F)c(=O)n(C)n3cc(CC#N)nc23)C[C@H]1C (single isomer, unassigned) [Compound A26a]" classlabel=met
compound="CC[C@H]1CN(C(C)c2ccc(OC)cn2)[C@H](CC)CN1c1cc(=O)n(C)n2cc(CC#N)nc12 (some centres unmarked) [Compound A48]" classlabel="not met"
compound="CC[C@H]1CN(C(C)c2ccc(C(C)(F)F)nc2)[C@H](CC)CN1c1cc(=O)n(C)n2cc(CC#N)nc12 (single isomer, unassigned) [Compound A90a]" classlabel=met
compound="CC[C@H]1CN(C(C)c2ccc3nccnc3c2)[C@H](CC)CN1c1cc(=O)n(C)n2cc(COC)nc12 (single isomer, unassigned) [Compound A8b]" classlabel="not met"
compound="CC[C@@H]1CN(c2cc(=O)n(C)n3cc(C=NOC)nc23)[C@@H](C)CN1C(C)c1ccc2nccnc2c1 (single isomer, unassigned) [Compound A9b]" classlabel="not met"
compound="CC[C@H]1CN(C(C)c2ccc3nc(C)sc3n2)[C@H](CC)CN1c1cc(=O)n(C)n2cc(C=NOC)nc12 (single isomer, unassigned) [Compound A124a]" classlabel="not met"

Criterion: IC50 strictly below 100 nM. Is it met by CC(c1ccc2nccnc2c1)N1C[C@H](C)N(c2cc(=O)n(C)n3cc(CC#N)nc23)C[C@H]1C (single isomer, unassigned) [Compound A1a] ?
met

Please determine if CC[C@H]1CN(C(C)c2ccc(C3CC3)nc2)[C@H](CC)CN1c1c(C#N)c(=O)n(C)n2cc(CC#N)nc12 (single isomer, unassigned) [Compound A75b] is below 100 nM in terms of IC50.
not met

Quick check: does CC[C@@H]1CN(c2cc(=O)n(C)n3cc(CC#N)nc23)[C@@H](C)CN1C(C)c1ccc2ccsc2n1 (some centres unmarked) [Compound A86] have IC50 under 100 nM?
met

I wonder whether CCC(c1ccc2nc(C)sc2n1)N1C[C@H](CC)N(c2cc(=O)n(C)n3cc(CC#N)nc23)C[C@H]1CC (single isomer, unassigned) [Compound A99a] has IC50 below 100 nM. Can you tell?
not met

Dear colleague, could you confirm whether IC50 of CC[C@@H]1CN(c2cc(=O)n(C)n3cc(CC#N)nc23)[C@@H](C)CN1C(C)c1ccc(C(F)(F)F)cc1F (single isomer, unassigned) [Compound A17b] falls below 100 nM? Thanks.
not met

----------
Biological target: Full length DGKα (D21-10BG, SignalChem) (Homo sapiens)
Construct: Full length DGKα (D21-10BG, SignalChem); purchased SignalChem D21-10BG
Sequence (P23743 whole entry): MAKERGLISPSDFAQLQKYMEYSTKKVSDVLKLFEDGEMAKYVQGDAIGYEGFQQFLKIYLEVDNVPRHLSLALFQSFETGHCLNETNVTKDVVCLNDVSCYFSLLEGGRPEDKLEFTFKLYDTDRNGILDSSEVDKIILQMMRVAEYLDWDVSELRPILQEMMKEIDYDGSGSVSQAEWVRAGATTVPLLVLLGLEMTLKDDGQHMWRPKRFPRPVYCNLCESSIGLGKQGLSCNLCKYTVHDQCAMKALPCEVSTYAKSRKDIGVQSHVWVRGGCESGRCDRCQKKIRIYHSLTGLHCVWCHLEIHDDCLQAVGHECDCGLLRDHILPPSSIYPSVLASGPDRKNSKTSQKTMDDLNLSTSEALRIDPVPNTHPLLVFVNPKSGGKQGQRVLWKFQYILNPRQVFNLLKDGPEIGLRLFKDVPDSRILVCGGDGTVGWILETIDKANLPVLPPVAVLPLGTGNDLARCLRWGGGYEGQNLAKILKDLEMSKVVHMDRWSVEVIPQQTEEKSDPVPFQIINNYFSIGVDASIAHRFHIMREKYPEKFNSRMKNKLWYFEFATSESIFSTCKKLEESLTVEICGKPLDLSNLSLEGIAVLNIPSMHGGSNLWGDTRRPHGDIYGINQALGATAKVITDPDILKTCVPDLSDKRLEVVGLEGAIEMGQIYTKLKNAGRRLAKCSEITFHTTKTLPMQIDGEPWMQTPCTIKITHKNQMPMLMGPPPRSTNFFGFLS
Experiment: Biochemical DGK IC50 assay (ADP-Glo, lipid micelle substrate), DGKα
Settings: 7.5 nM enzyme, 140 μM ATP, 80 μM DAG, 1 hour preincubation, 1 hour reaction, room temperature, read-out: IC50s for DGKα
pIC50: −log10 of the molar value.
# if value of pIC50 reaches 7, tag T; if it stays below, tag F

Example cases with answers are listed next.
compound="CC[C@@H]1CN(c2cc(=O)n(C)n3cc(COC)nc23)[C@@H](C)CN1C(C)c1ccc(C(F)(F)F)cc1F (single isomer, unassigned) [Compound A16b]" classlabel=F
compound="CCC(c1ccc2nc(C)sc2n1)N1C[C@H](CC)N(c2cc(=O)n(C)n3cc(CC#N)nc23)C[C@H]1C (single isomer, unassigned) [Compound A98b]" classlabel=T

Next item in the queue.
Reported pIC50 at or above 7? CCc1nc2ccc(C(C)N3C[C@H](CC)N(c4cc(=O)n(C)n5cc(CC#N)nc45)C[C@H]3CC)cc2s1 (single isomer, unassigned) [Compound A100b]
F

----------
Endpoint: pIC50. System: Full length DGKα (D21-10BG, SignalChem) (Homo sapiens). Items follow.
One number for each entry, as −log10 of the molar value.

compound="CC[C@@H]1CN(c2cc(=O)n(C)n3cc(CC#N)nc23)[C@@H](C)CN1C(C)c1ccc2nc(C)sc2n1 (single isomer, unassigned) [Compound A84b]" measurednumber=5.48
compound="CC(c1ccc2c(c1)OC(C)(C)CO2)N1C[C@H](C)N(c2c(F)c(=O)n(C)n3cc(CC#N)nc23)C[C@H]1C (single isomer, unassigned) [Compound A26a]" measurednumber=5.54
compound="CC[C@H]1CN(C(C)c2ccc3nc(CC4CC4)sc3n2)[C@H](CC)CN1c1cc(=O)n(C)n2cc(CC#N)nc12 (single isomer, unassigned) [Compound A110a]" measurednumber=5.97

Item CC[C@H]1CN(C(C)c2ccc3nc(C)sc3n2)[C@H](C)CN1c1cc(=O)n(C)n2cc(CC#N)nc12 (single isomer, unassigned) [Compound A121b] : provide pIC50
7.30

----------
The following are reported IC50 results, target or system Full length DGKα (D21-10BG, SignalChem) (Homo sapiens, UniProt P23743).
Give bare numbers, in nM.

Solved cases below.
compound="CC[C@@H]1CN(c2c(C#N)c(=O)n(C)n3cc(CC#N)nc23)[C@@H](C)CN1C(C)c1ccc2nc(C)sc2n1 (single isomer, unassigned) [Compound A113a]" measurednumber=185
compound="CC[C@H]1CN(C(C)c2ccc3nccnc3c2)[C@H](CC)CN1c1cc(=O)n(C)n2cc(CC#N)nc12 (single isomer, unassigned) [Compound A14b]" measurednumber=1420

Query compound follows.
Tell me its IC50 given CC[C@H]1CN(C(C)c2ccc(C3CC3)nc2F)[C@H](CC)CN1c1cc(=O)n(C)n2cc(CC#N)nc12 (single isomer, unassigned) [Compound A42b] as the entry.
1060

----------
I'd appreciate it if you could supply IC50 values for the items below.
Target: Full length DGKζ (in-house protein M1-V929) (Homo sapiens, UniProt Q13574)
Construct: His (N); TEV cleavage site (N)
Assay: Biochemical DGK IC50 assay (ADP-Glo, lipid micelle substrate), DGKζ
Conditions: 0.5 nM enzyme, 140 μM ATP, 80 μM DAG, 1 hour preincubation, 1 hour reaction, room temperature, read-out: IC50s for DGKζ
One number for each entry, in µM.

Below are worked cases with known answers.
compound="CC[C@@H]1CN(c2cc(=O)n(C)n3cc(COC)nc23)[C@@H](C)CN1C(C)c1ccc(C(F)(F)F)cc1F (single isomer, unassigned) [Compound A16a]" endpoint=IC50 unitsofmeasure=µM measurednumber=1.23
compound="CC[C@H]1CN(C(C)c2ccc(C(C)(F)F)nc2)[C@H](CC)CN1c1cc(=O)n(C)n2cc(CC#N)nc12 (single isomer, unassigned) [Compound A90b]" endpoint=IC50 unitsofmeasure=µM measurednumber=0.802

Now turn to the next compound.
Output IC50 of CC[C@H]1CN(C(C)c2ccc3nc(CC4CC4)sc3n2)[C@H](CC)CN1c1cc(=O)n(C)n2cc(CC#N)nc12 (single isomer, unassigned) [Compound A110a]
1.17

----------
Biological target: Full length DGKζ (in-house protein M1-V929) (Homo sapiens)
Construct: His (N); TEV cleavage site (N)
Experiment: Biochemical DGK IC50 assay (ADP-Glo, lipid micelle substrate), DGKζ
Details: 0.5 nM enzyme, 140 μM ATP, 80 μM DAG, 1 hour preincubation, 1 hour reaction, room temperature, read-out: IC50s for DGKζ
endpoint: pIC50
Give bare numbers, as −log10 of the molar value.

Example entries and their recorded answers appear below.
molecule="Cc1cnc2ccc(C(C)N3C[C@H](C)N(c4cc(=O)n(C)n5cc(CC#N)nc45)C[C@H]3C)cc2n1 (single isomer, unassigned) [Compound A2a]" measurednumber=5.13
molecule="CC[C@H]1CN(C(C)c2ccc(C(C)(C)F)nc2)[C@H](CC)CN1c1cc(=O)n(C)n2cc(CC#N)nc12 (single isomer, unassigned) [Compound A46b]" measurednumber=6.06
molecule="CC[C@H]1CN(C(C)c2ccc(OC(C)C)nc2)[C@H](CC)CN1c1cc(=O)n(C)n2cc(CC#N)nc12 (single isomer, unassigned) [Compound A45a]" measurednumber=8.10
molecule="CC[C@H]1CN(C(C)c2ccc3nc(CC4CC4)sc3n2)[C@H](CC)CN1c1cc(=O)n(C)n2cc(CC#N)nc12 (single isomer, unassigned) [Compound A110b]" measurednumber=7.82
molecule="CC[C@H]1CN(C(C)c2ccc(C3CC3(F)F)nc2)[C@H](CC)CN1c1cc(=O)n(C)n2cc(CC#N)nc12 (single isomer, unassigned) [Compound A70a]" measurednumber=6.61
molecule="CC[C@@H]1CN(c2cc(=O)n(C)n3cc(CC#N)nc23)[C@@H](C)CN1C(C)c1ccc2nc(C)sc2c1 (stereo partly drawn) [Compound A55]" measurednumber=6.97
molecule="CC[C@H]1CN(C(C)c2ccc(C3(F)CC3)cc2)[C@H](CC)CN1c1cc(=O)n(C)n2cc(CC#N)nc12 (stereo partly drawn) [Compound A88]" measurednumber=7.41

Read off the recorded pIC50 for CC(c1ccc2c(c1)OCO2)N1C[C@H](C)N(c2cc(=O)n(C)n3cc(CC#N)nc23)C[C@H]1C (stereo partly drawn) [Compound A29]
6.32
